Reported clearance values follow for various compounds
# Protocol Text: Clearance value in rat at 0.5 mg/kg dose in intravenous and 1 mg/kg of peroral
# Format: ADME, organism-based
# Test Settings: in vivo

Smiles	clearance (mL/min/kg)
O=C(O)C[C@H](CCCCCCc1ccc2c(n1)NCCC2)c1cncnc1	30
Cc1ncc([C@@H](CCCCCCc2ccc3c(n2)NCCC3)CC(=O)O)cn1	3.6

---

Reported logP values follow for various molecules
# Protocol Text: Partition coefficient (logP)
# Assay type: physicochemical
# Test Settings: octanol/water; read-out: logP

Molecule	logP
O=C(O)C[C@H](CCCCCCc1ccc2c(n1)NCCC2)c1cnc2ccccc2c1	2.39
CC(C)c1ncc([C@@H](CCCCCCc2ccc3c(n2)NCCC3)CC(=O)O)cn1	1.32
O=C(O)C[C@H](CCCCCCc1ccc2c(n1)NCCC2)c1ccc2c(c1)OCC2	2.39
O=C(O)CC(NC(=O)CCCCc1ccc2c(n1)NCCC2)c1cncnc1 (configuration not stated)	-1.2
COc1ncc([C@@H](CCCCCCc2ccc3c(n2)NCCC3)CC(=O)O)cn1	0.65
Cc1ncc([C@@H](CCCCCCc2ccc3c(n2)NCCC3)CC(=O)O)cn1	0.43
O=C(O)C[C@H](CCCCCCc1ccc2c(n1)NCCC2)c1cncnc1	0.1

---

# Protocol Text: Bioavailability in dog (dose 0.2 mg/kg i.v. and 1 mg/kg p.o.)
# Format: ADME, organism-based, Canis lupus familiaris
# Test Settings: in vivo, po

Compound	Relational Operator	bioavailability [%]
O=C(O)CC(NC(=O)CCCCc1ccc2c(n1)NCCC2)c1cncnc1 (configuration not stated)	=	10
O=C(O)C[C@H](CCCCCCc1ccc2c(n1)NCCC2)c1ccc2c(c1)OCC2	>	99
Cc1ncc([C@@H](CCCCCCc2ccc3c(n2)NCCC3)CC(=O)O)cn1	=	83
COc1ccc([C@@H](CCCCCCc2ccc3c(n2)NCCC3)CC(=O)O)cn1	=	49
O=C(O)C[C@H](CCCCCCc1ccc2c(n1)NCCC2)c1cnc2ccccc2c1	=	65
O=C(O)C[C@H](CCCCCCc1ccc2c(n1)NCCC2)c1cncnc1	=	66
COc1ncc([C@@H](CCCCCCc2ccc3c(n2)NCCC3)CC(=O)O)cn1	=	100

---

# Protocol Text: Clearance value in dog at 0.2 mg/kg dose in intravenous and 1 mg/kg of peroral
# Assay type: ADME, organism-based, Canis lupus familiaris
# Test Settings: in vivo
Reported clearance values follow for various compounds

Compound	clearance [mL/min/kg]
O=C(O)C[C@H](CCCCCCc1ccc2c(n1)NCCC2)c1cncnc1	3.9
Cc1ncc([C@@H](CCCCCCc2ccc3c(n2)NCCC3)CC(=O)O)cn1	2.5
O=C(O)C[C@H](CCCCCCc1ccc2c(n1)NCCC2)c1ccc2c(c1)OCC2	7.9
COc1ncc([C@@H](CCCCCCc2ccc3c(n2)NCCC3)CC(=O)O)cn1	4.3
O=C(O)C[C@H](CCCCCCc1ccc2c(n1)NCCC2)c1cnc2ccccc2c1	3
O=C(O)CC(NC(=O)CCCCc1ccc2c(n1)NCCC2)c1cncnc1 (configuration not stated)	26
COc1ccc([C@@H](CCCCCCc2ccc3c(n2)NCCC3)CC(=O)O)cn1	5.1

---

Reported bioavailability values follow for various molecules
# Protocol Text: Bioavailability in monkey (dose 0.2 mg/kg i.v. and 1 mg/kg p.o.)
# Format: ADME, organism-based
# Test Settings: cercopithecidae, in vivo, po

Smiles	bioavailability [%]
O=C(O)C[C@H](CCCCCCc1ccc2c(n1)NCCC2)c1cncnc1	46
Cc1ncc([C@@H](CCCCCCc2ccc3c(n2)NCCC3)CC(=O)O)cn1	75
